# target.under.test: PRMT1 (Homo sapiens)
# Sequence (Q99873 whole entry): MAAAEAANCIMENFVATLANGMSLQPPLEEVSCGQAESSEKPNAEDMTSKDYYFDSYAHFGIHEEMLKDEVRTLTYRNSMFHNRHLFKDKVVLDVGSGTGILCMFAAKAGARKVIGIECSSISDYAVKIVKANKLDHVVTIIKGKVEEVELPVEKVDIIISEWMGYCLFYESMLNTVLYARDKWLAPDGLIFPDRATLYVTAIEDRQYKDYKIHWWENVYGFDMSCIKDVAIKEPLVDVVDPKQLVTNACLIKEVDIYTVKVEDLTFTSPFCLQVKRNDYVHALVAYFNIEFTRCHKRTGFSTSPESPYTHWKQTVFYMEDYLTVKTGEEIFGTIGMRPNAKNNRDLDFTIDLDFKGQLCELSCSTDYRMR
# method.notes: AlphaLISA PRMT1 activity assay (H4R3me)
# experimental.setup: read-out: % PRMT1 residual activity at 100 uM
Please use Yes for remaining activity at 100 µM under 70% and No for everything else, ties included.

Here's what some known entries look like.
Regarding COC(=O)c1cc(O)c2cc(NC(=O)NCCCn3ccnc3)ccc2c1 , kindly confirm whether its remaining activity at 100 µM is beneath 70%.
Yes

Item: CNC(=N)NCCCCCC(=O)Nc1ccc2cc(C(=O)O)cc(O)c2c1
Yes

Subsequent entry: COC(=O)c1cc(O)c2cc(NC(=O)CNC(=O)Nc3ccc(OC)cc3)ccc2c1 [10c]
No

Input COC(=O)c1cc(O)c2cc(NC(=O)CCCCNC(=N)N)ccc2c1
Yes

***
Quick check: remaining activity at 100 µM of COC(=O)c1cc(O)c2cc(NC(=O)NCCCCCNC(=N)N)ccc2c1 under 70%?
Yes

COC(=O)c1cc(O)c2cc(NC(=O)[C@H](CCSC)NC(=O)Nc3ccc(OC)cc3)ccc2c1 ?
No

Do the same for O=C(CCCCNC1=NCCN1)Nc1ccc2cc(C(=O)O)cc(O)c2c1 please
Yes

// same read-out, input: N=C(N)NCCCCNC(=O)Nc1ccc2cc(C(=O)O)cc(O)c2c1
Yes

---

# target.under.test: UniProtKB Q86X55
# method.notes: Radioisotope-based filter-binding (HotSpot) assay, PRMT4
# experimental.setup: ratio IC50 PRMT7 / IC50 PRMT4
metric.name: selectivity index for PRMT4 vs other PRMTs: PRMT7
Write the value as a bare number.

Would you please look over these solved cases?
Find selectivity index for PRMT4 vs other PRMTs: PRMT7 (UniProtKB Q86X55) for the entry COC(=O)c1cc(O)c2cc(NC(=O)NCCCCCCCNC(=N)NC[C@H]3O[C@@H](n4cnc5c(N)ncnc54)[C@H](O)[C@@H]3O)ccc2c1 [12e]
4

Also COC(=O)c1cc(O)c2cc(NC(=O)NCCCCNC(=N)NCC[C@H]3O[C@@H](n4cnc5c(N)ncnc54)[C@H](O)[C@@H]3O)ccc2c1 [12f] ?
23

New cases:
Quick check: selectivity index for PRMT4 vs other PRMTs: PRMT7 on UniProtKB Q86X55, item COC(=O)c1cc(O)c2cc(NC(=O)NCCCCCNC(=N)NC[C@H]3O[C@@H](n4cnc5c(N)ncnc54)[C@H](O)[C@@H]3O)ccc2c1 [12c] ?
0.52

Now try COC(=O)c1cc(O)c2cc(NC(=O)NCCCCNC(=N)NCCC[C@H]3O[C@@H](n4cnc5c(N)ncnc54)[C@H](O)[C@@H]3O)ccc2c1 [12g] .
557

---

Measured selectivity index for PRMT4 vs other PRMTs: PRMT5 values are reported for all entries that follow.
# target.under.test: PRMT4 (Homo sapiens, UniProt Q86X55)
# Sequence (Q86X55 2-608): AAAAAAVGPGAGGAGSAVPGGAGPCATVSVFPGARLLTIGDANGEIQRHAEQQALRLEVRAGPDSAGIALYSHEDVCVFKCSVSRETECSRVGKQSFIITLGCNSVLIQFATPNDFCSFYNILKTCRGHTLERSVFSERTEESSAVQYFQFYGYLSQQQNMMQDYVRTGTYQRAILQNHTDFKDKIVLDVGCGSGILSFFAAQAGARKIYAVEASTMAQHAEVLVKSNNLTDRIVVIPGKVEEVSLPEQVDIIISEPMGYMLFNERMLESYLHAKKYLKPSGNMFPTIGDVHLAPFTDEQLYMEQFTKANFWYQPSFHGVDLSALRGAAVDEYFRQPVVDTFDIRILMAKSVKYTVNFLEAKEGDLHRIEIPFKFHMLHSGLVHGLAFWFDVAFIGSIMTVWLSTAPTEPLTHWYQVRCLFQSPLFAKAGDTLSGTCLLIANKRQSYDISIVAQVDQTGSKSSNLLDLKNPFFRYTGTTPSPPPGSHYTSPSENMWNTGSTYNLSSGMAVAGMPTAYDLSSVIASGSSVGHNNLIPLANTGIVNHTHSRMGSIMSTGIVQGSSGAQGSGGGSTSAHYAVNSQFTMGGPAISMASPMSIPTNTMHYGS
# method.notes: Radioisotope-based filter-binding (HotSpot) assay, PRMT4
# experimental.setup: ratio IC50 PRMT5 / IC50 PRMT4
Output spec: single numeric token, no unit.

In the examples that follow, each entry is paired with its recorded selectivity index for PRMT4 vs other PRMTs: PRMT5.
Which selectivity index for PRMT4 vs other PRMTs: PRMT5 value is on record for COC(=O)c1cc(O)c2cc(NC(=O)NCCCCCCCNC(=N)NC[C@H]3O[C@@H](n4cnc5c(N)ncnc54)[C@H](O)[C@@H]3O)ccc2c1 [12e] ?
19

COC(=O)c1cc(O)c2cc(NC(=O)NCCCCNC(=N)NCC[C@H]3O[C@@H](n4cnc5c(N)ncnc54)[C@H](O)[C@@H]3O)ccc2c1 [12f] ?
12

Please answer likewise for COC(=O)c1cc(O)c2cc(NC(=O)NCCCCNC(=N)NCCC[C@H]3O[C@@H](n4cnc5c(N)ncnc54)[C@H](O)[C@@H]3O)ccc2c1 [12g]
93

Could you now look at the following molecule, please?
Give the measured selectivity index for PRMT4 vs other PRMTs: PRMT5 of COC(=O)c1cc(O)c2cc(NC(=O)NCCCCCNC(=N)NC[C@H]3O[C@@H](n4cnc5c(N)ncnc54)[C@H](O)[C@@H]3O)ccc2c1 [12c] .
122

---

# target.under.test: PRMT4 (Homo sapiens, UniProt Q86X55)
# method.notes: Radioisotope-based filter-binding (HotSpot) assay, PRMT4
# experimental.setup: ratio IC50 PRMT8 / IC50 PRMT4
Listed here: items and their measured selectivity index for PRMT4 vs other PRMTs: PRMT8.
No unit in the answer, please; the number alone is enough.

Examples with their reported selectivity index for PRMT4 vs other PRMTs: PRMT8 follow.
Record request: selectivity index for PRMT4 vs other PRMTs: PRMT8 value, item COC(=O)c1cc(O)c2cc(NC(=O)NCCCCNC(=N)NCC[C@H]3O[C@@H](n4cnc5c(N)ncnc54)[C@H](O)[C@@H]3O)ccc2c1 [12f]
619

// repeat for COC(=O)c1cc(O)c2cc(NC(=O)NCCCCNC(=N)NCCC[C@H]3O[C@@H](n4cnc5c(N)ncnc54)[C@H](O)[C@@H]3O)ccc2c1 [12g] and report
168

Another compound to look at: COC(=O)c1cc(O)c2cc(NC(=O)NCCCCCCCNC(=N)NC[C@H]3O[C@@H](n4cnc5c(N)ncnc54)[C@H](O)[C@@H]3O)ccc2c1 [12e]
33

Further cases:
Please report the recorded selectivity index for PRMT4 vs other PRMTs: PRMT8 for COC(=O)c1cc(O)c2cc(NC(=O)NCCCCCNC(=N)NC[C@H]3O[C@@H](n4cnc5c(N)ncnc54)[C@H](O)[C@@H]3O)ccc2c1 [12c] .
14

---

Each entry below lists one item and its recorded SI PRMT1 (Figure 5 heatmap) value.
# target.under.test: PRMT4 (Homo sapiens, UniProt Q86X55)
# method.notes: Radioisotope-based filter-binding (HotSpot) assay, PRMT4
# experimental.setup: selectivity index for PRMT4 over PRMT1
Could you give me the number in fold? Just the number is fine.

Examples with their reported SI PRMT1 (Figure 5 heatmap) follow.
# query: SI PRMT1 (Figure 5 heatmap) of entry COC(=O)c1cc(O)c2cc(NC(=O)NCCCCNC(=N)NCCC[C@H]3O[C@@H](n4cnc5c(N)ncnc54)[C@H](O)[C@@H]3O)ccc2c1 [12g]
214

Now the compound COC(=O)c1cc(O)c2cc(NC(=O)NCCCCCCCNC(=N)NC[C@H]3O[C@@H](n4cnc5c(N)ncnc54)[C@H](O)[C@@H]3O)ccc2c1 [12e]
15

Here is the next compound: COC(=O)c1cc(O)c2cc(NC(=O)NCCCCNC(=N)NCC[C@H]3O[C@@H](n4cnc5c(N)ncnc54)[C@H](O)[C@@H]3O)ccc2c1 [12f]
501

Next:
Please look up its SI PRMT1 (Figure 5 heatmap): COC(=O)c1cc(O)c2cc(NC(=O)NCCCCCNC(=N)NC[C@H]3O[C@@H](n4cnc5c(N)ncnc54)[C@H](O)[C@@H]3O)ccc2c1 [12c]
20

---

Listing of entries alongside the reported selectivity index for PRMT4 vs other PRMTs: PRMT6.
# target.under.test: PRMT4 (Homo sapiens)
# method.notes: Radioisotope-based filter-binding (HotSpot) assay, PRMT4
# experimental.setup: ratio IC50 PRMT6 / IC50 PRMT4
Keep the answer to the number alone.

These recorded examples may help you get a feel for the data.
I am curious: what selectivity index for PRMT4 vs other PRMTs: PRMT6 value has been reported for COC(=O)c1cc(O)c2cc(NC(=O)NCCCCCCCNC(=N)NC[C@H]3O[C@@H](n4cnc5c(N)ncnc54)[C@H](O)[C@@H]3O)ccc2c1 [12e] ?
202

Same again, this time with COC(=O)c1cc(O)c2cc(NC(=O)NCCCCNC(=N)NCCC[C@H]3O[C@@H](n4cnc5c(N)ncnc54)[C@H](O)[C@@H]3O)ccc2c1 [12g]
517

Could you now consider this next molecule?
Sample COC(=O)c1cc(O)c2cc(NC(=O)NCCCCNC(=N)NCC[C@H]3O[C@@H](n4cnc5c(N)ncnc54)[C@H](O)[C@@H]3O)ccc2c1 [12f] — what was its selectivity index for PRMT4 vs other PRMTs: PRMT6?
2340

---

# target.under.test: PRMT4 (Homo sapiens)
# method.notes: Radioisotope-based filter-binding (HotSpot) assay, PRMT4
# experimental.setup: read-out: IC50 PRMT4 (Figure 5 heatmap); radioisotope-based filter assay
metric.name: IC50 (nM)
# value in nM; strip the unit string

Please review the following examples before continuing.
Endpoint output: IC50 of COC(=O)c1cc(O)c2cc(NC(=O)NCCCCNC(=N)NC[C@H]3O[C@@H](n4cnc5c(N)ncnc54)[C@H](O)[C@@H]3O)ccc2c1 [12b] . Value?
2140

And the next one, COC(=O)c1cc(O)c2cc(NC(=O)NCCCCCNC(=N)NC[C@H]3O[C@@H](n4cnc5c(N)ncnc54)[C@H](O)[C@@H]3O)ccc2c1 [12c] ?
421

Also, COC(=O)c1cc(O)c2cc(NC(=O)NCCCCNC(=N)NCCC[C@H]3O[C@@H](n4cnc5c(N)ncnc54)[C@H](O)[C@@H]3O)ccc2c1 [12g] please.
8

---
Fill blank: measured IC50 of the compound COC(=O)c1cc(O)c2cc(NC(=O)NCCCCNC(=N)NCC[C@H]3O[C@@H](n4cnc5c(N)ncnc54)[C@H](O)[C@@H]3O)ccc2c1 [12f] is ____.
10
